biological target: Cytochrome P450 2C9 (Homo sapiens) (UniProt P11712); experiment: blockers of cytochrome P450 2C9 activity – biochemical, luminescence, ADME assay, primary screen (AID 777); conditions: CYP2C9 Supersomes, luciferin-H conversion, at 5 µM
Sequence (P11712 whole entry, looked up): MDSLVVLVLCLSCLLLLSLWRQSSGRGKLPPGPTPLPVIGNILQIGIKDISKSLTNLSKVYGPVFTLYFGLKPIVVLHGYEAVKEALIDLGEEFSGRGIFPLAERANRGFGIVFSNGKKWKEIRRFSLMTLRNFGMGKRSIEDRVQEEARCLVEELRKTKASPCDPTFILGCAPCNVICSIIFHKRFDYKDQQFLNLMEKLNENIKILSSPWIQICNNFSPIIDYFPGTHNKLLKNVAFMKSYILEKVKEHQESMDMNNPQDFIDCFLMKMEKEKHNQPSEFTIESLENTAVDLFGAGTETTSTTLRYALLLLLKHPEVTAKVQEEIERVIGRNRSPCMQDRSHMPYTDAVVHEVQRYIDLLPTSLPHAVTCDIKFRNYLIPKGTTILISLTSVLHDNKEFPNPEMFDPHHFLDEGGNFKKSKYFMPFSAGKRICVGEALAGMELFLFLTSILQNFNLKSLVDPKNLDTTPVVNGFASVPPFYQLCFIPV
About 19,000 (20%) of roughly 96,000 compounds were called active.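 How the source made its calls: active means blocking of liver enzyme CYP2C9 beyond about 50% at 5 µM (limit read from the data); inactive means the rest.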 Only a sample is shown.
// allowed return values: active, inactive

Example results:
{"columns": ["Compound", "Target Under Test", "Group"],
 "data": [
  ["O=C(CNC(=O)c1cc2c(s1)CCC2)Nc1ccccc1Br", "Cytochrome P450 2C9 (Homo sapiens) (UniProt P11712)", "inactive"],
  ["CCCn1nnnc1NC(=O)COc1ccc(Cl)cc1C", "Cytochrome P450 2C9 (Homo sapiens) (UniProt P11712)", "inactive"],
  ["COc1ccc(N2CCN(C(c3cc4ccc(C)cc4[nH]c3=O)c3nnnn3C3CCCC3)CC2)cc1 (stereo unspecified)", "Cytochrome P450 2C9 (Homo sapiens) (UniProt P11712)", "active"],
  ["O=C(NCCCN1CCOCC1)c1cc2c(s1)CCC2", "Cytochrome P450 2C9 (Homo sapiens) (UniProt P11712)", "inactive"],
  ["Cc1cccc2cc(CN(Cc3cccs3)C(c3nnnn3C3CCCC3)C(C)C)c(=O)[nH]c12 (stereo unspecified)", "Cytochrome P450 2C9 (Homo sapiens) (UniProt P11712)", "inactive"]
]}

stdin: Entry CCOc1ccc2[nH]c(=O)c(C(c3nnnn3CCOC)N3CCOCC3)cc2c1 (stereo unspecified) : call = ?
stdout: inactive

stdin: Entry CCN(CC(=O)NC1CCS(=O)(=O)C1)c1nc(-c2cccnc2)nc2ccccc12 (stereo unspecified) : call = ?
stdout: inactive

stdin: Entry COC(=O)c1ccc(C2CC(=O)Nc3cc(OC)c(OC)cc32)cc1 (stereo unspecified) : call = ?
stdout: inactive

stdin: Entry "O=C(c1cc2c(s1)CCC2)N1CCN(c2ccccc2)CC1" : call = ?
stdout: active

stdin: Entry COc1ccc(C(c2nnnn2C2CCCCC2)N2CCN(c3ccccc3F)CC2)cc1 (stereo unspecified) : call = ?
stdout: active

stdin: Entry CC(C)C(c1nnnn1C1CCCC1)N1CCN(c2ccccc2F)CC1 (stereo unspecified) : call = ?
stdout: inactive

----------
biological target: Cytochrome P450 2C9 (Homo sapiens); test: blockers of cytochrome P450 2C9 activity – biochemical, luminescence, ADME assay, primary screen (AID 777); details: CYP2C9 Supersomes, luciferin-H conversion, at 5 µM, hits give high values
About 19,000 (20%) of roughly 96,000 compounds were called active. Not all results are given here.
Measured Metric: inhibition (%)
Expressed in %, but write only the number.

Worked cases, answers included:
{"columns": ["Compound", "Value"],
 "data": [
  ["Cc1ccc(C)c(NS(=O)(=O)c2cc(Br)cnc2N)c1", 63.5],
  ["COCCCNC(=O)COc1cc(C)c(Cl)c(C)c1", -73.4]
]}

stdin: Lab note: need inhibition for "O=C(COc1ccccc1)NCCc1nc2ccccc2[nH]1" on Cytochrome P450 2C9 (Homo sapiens), anyone have it?
stdout: 28.6

stdin: Lab note: need inhibition for "COCCNC(=S)c1ccc(OC)cc1" on Cytochrome P450 2C9 (Homo sapiens), anyone have it?
stdout: -13.3

----------
biological target: Cytochrome P450 2C9 (Homo sapiens); experiment: blockers of cytochrome P450 2C9 activity – biochemical, luminescence, ADME assay, primary screen (AID 777); settings: CYP2C9 Supersomes, luciferin-H conversion, at 5 µM, hits give high values
In all, about 96,000 compounds went through this assay and about 19,000 (20%) were called active. Not all results are given here.
Measured Metric: inhibition (%)
Expressed in %, but write only the number.

Worked cases, answers included:
{"columns": ["Compound", "inhibition [%]"],
 "data": [
  ["CC1=C(C(N)=O)C(c2sccc2C)n2nnnc2N1 (stereo unspecified)", -4.8],
  ["Cc1c(-c2ccccc2)cn2c1-c1ccc(C)n1CC2", -10.8],
  ["CCCCCC(=O)Nc1ccc2oc(-c3ccncc3)nc2c1", 75.3]
]}

stdin: Lab note: need inhibition for "Cc1csc(=NC(=O)c2ccccc2)n1CCO" on Cytochrome P450 2C9 (Homo sapiens), anyone have it?
stdout: 32.3

stdin: Lab note: need inhibition for CC(NC(=O)Nc1ccccc1)c1ccccc1 (stereo unspecified) on Cytochrome P450 2C9 (Homo sapiens), anyone have it?
stdout: 7

stdin: Lab note: need inhibition for Cc1ccc(NC(=O)C(C)c2cccc(C(=O)c3ccccc3)c2)cc1 (stereo unspecified) on Cytochrome P450 2C9 (Homo sapiens), anyone have it?
stdout: 57.9

stdin: Lab note: need inhibition for "O=C(Nc1ccc2oc(-c3ccc4ccccc4c3)nc2c1)c1cccs1" on Cytochrome P450 2C9 (Homo sapiens), anyone have it?
stdout: 27.5

----------
molecular target: Cytochrome P450 2C9 (Homo sapiens) (UniProt P11712); assay: blockers of cytochrome P450 2C9 activity – biochemical, luminescence, ADME assay, primary screen (AID 777); conditions: CYP2C9 Supersomes, luciferin-H conversion, at 5 µM
The whole screen tested about 96,000 compounds, of which about 19,000 (20%) were called active.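 The calls were made as follows: active = blocking of liver enzyme CYP2C9 beyond about 50% at 5 µM (limit read from the data); inactive = the rest.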 These entries were drawn from the full list.
// allowed return values: active, inactive

Example results:
{"columns": ["Compound", "Group"],
 "data": [
  ["Cc1c(Nc2cc(N3CCCC(C)C3)c3nonc3c2[N+](=O)[O-])c(=O)n(-c2ccccc2)n1C (stereo unspecified)", "inactive"],
  ["COc1cc(OC)cc(C(=O)NC(=S)N2CCN(c3ccc(C(F)(F)F)cc3[N+](=O)[O-])CC2)c1", "inactive"],
  ["O=C(Nc1ccc(Cl)cc1)OCc1cc(-c2ccccc2)on1", "active"],
  ["C=CCn1c(SCC(=O)c2ccc(Br)cc2)nnc1C(C)NC(=O)Cc1ccc(OC)cc1 (stereo unspecified)", "inactive"]
]}

stdin: Entry "O=C(CSc1nnnn1-c1ccc2c(c1)CCC2)Nc1ccc2c(c1)OCCO2" : call = ?
stdout: inactive

stdin: Entry "CCOc1ccc(CN(Cc2ccco2)S(=O)(=O)c2ccc(-n3cnnn3)c(OC)c2)cc1" : call = ?
stdout: active

stdin: Entry "COCCN(C(=O)c1ccco1)c1nnc(-c2ccc(OC)cc2)s1" : call = ?
stdout: inactive

stdin: Entry "Cn1c(=NC(=O)CSCC(=O)N2CCCCC2)sc2ccccc21" : call = ?
stdout: inactive

stdin: Entry "Cc1cc(C=O)c(C)n1-c1ccc(NC2CCCCC2)c([N+](=O)[O-])c1" : call = ?
stdout: inactive

stdin: Entry "CCOc1ccc(-c2nc(C)sc2CC(=O)O)cc1" : call = ?
stdout: inactive

----------
target: Cytochrome P450 2C9 (Homo sapiens) (UniProt P11712); experiment: blockers of cytochrome P450 2C9 activity – biochemical, luminescence, ADME assay, primary screen (AID 777); settings: CYP2C9 Supersomes, luciferin-H conversion, at 5 µM, hits give high values
Hit rate of the full screen: of about 96,000 compounds, about 19,000 (20%) were called active. A selection follows.
Threshold rule: inhibition greater than or equal to 40% is Condition met; below that, Condition not met.

Example results:
{"columns": ["Compound", "Target Under Test", "Group"],
 "data": [
  ["COc1cccc(Nc2ncccc2C(=O)O)c1", "Cytochrome P450 2C9 (Homo sapiens) (UniProt P11712)", "Condition not met"],
  ["CCCS(=O)(=O)N1CCCC(C(=O)N2CCN(c3ccccc3)CC2)C1 (centres undefined)", "Cytochrome P450 2C9 (Homo sapiens) (UniProt P11712)", "Condition not met"],
  ["CC(C)(C)c1ccc(C(=O)NNC(=O)Cc2ccccc2)cc1", "Cytochrome P450 2C9 (Homo sapiens) (UniProt P11712)", "Condition not met"]
]}

stdin: Is it the case that "Cc1cc(C)cc(NC(=O)CSCc2cnn(-c3ccccc3)c2-n2cccc2)c1" has inhibition reaching or exceeding 40%?
stdout: Condition met

stdin: Is it the case that "COc1ccc(-n2nnnc2SCC(=O)Nc2ccccc2)cc1" has inhibition reaching or exceeding 40%?
stdout: Condition not met

stdin: Is it the case that "Cc1ccc(NC(=O)CN2CCc3ccccc3C2)cc1" has inhibition reaching or exceeding 40%?
stdout: Condition met

stdin: Is it the case that "CCOc1ccccc1Nc1nnc(SCC(=O)Nc2cc(C)on2)s1" has inhibition reaching or exceeding 40%?
stdout: Condition not met

stdin: Is it the case that "Cc1ccc(N2CCN(c3ccc(C)cc3)C2c2ccccn2)cc1" has inhibition reaching or exceeding 40%?
stdout: Condition not met

stdin: Is it the case that "CC1(C)Cc2nc3sc4c(SCC(=O)NC(c5ccccc5)c5ccccc5)ncnc4c3cc2CO1" has inhibition reaching or exceeding 40%?
stdout: Condition not met

stdin: Is it the case that "N#Cc1nc(COc2ccc(-c3ccccc3)cc2)oc1NCc1cccnc1" has inhibition reaching or exceeding 40%?
stdout: Condition met

stdin: Is it the case that "COc1ccc2c(Cl)c(-c3nnco3)sc2c1" has inhibition reaching or exceeding 40%?
stdout: Condition not met

stdin: Is it the case that C=CCn1c(SCCOc2ccc(OC)cc2)nnc1C(NC(=O)c1ccc(OC)cc1)C(C)C (centres undefined) has inhibition reaching or exceeding 40%?
stdout: Condition met

stdin: Is it the case that "CCOc1c(Cl)cc(/C=N/O)cc1OC" has inhibition reaching or exceeding 40%?
stdout: Condition not met
